- SYSTEM_UNDER_TEST: human acetyl-CoA carboxylase 2 (ACC2) (Homo sapiens)
- Construct: The cDNA encoding amino acids 144 to 2458 of human acetyl-CoA carboxylase 2; made in house; host or cells: Sf9 insect cells (baculovirus, pFastBac1)
- RUN_DESCRIPTION: Acetyl-CoA carboxylase enzyme assay (malonyl-CoA formation by LC/MS/MS)
- Format: biochemical
- RUN_CONDITIONS: recombinant human ACC2 (aa 144-2458); read-out: IC50 ACC2
Can you tell me pIC50 for the items I'm about to list?
One number for each entry, as −log10 of the molar value.

# COMPOUND, SYSTEM_UNDER_TEST, MEASURED_METRIC, TEST_RESULT
records = [
    ("O=C([C@H]1CC[C@H](NS(=O)(=O)c2ccc3c(c2)CCC3)CC1)N1CCNC[C@@H]1c1ccccc1", "human acetyl-CoA carboxylase 2 (ACC2) (Homo sapiens)", "pIC50", 7.46),
    ("C[C@@H](NC(=O)[C@H]1CC[C@H](NS(=O)(=O)c2ccc3[nH]c(-c4ccncc4)nc3c2)CC1)c1ccccc1", "human acetyl-CoA carboxylase 2 (ACC2) (Homo sapiens)", "pIC50", 7.92),
    ("COc1ccc(Nc2nc3cc(S(=O)(=O)N[C@H]4CC[C@H](C(=O)OC(C)C)CC4)ccc3[nH]2)cc1", "human acetyl-CoA carboxylase 2 (ACC2) (Homo sapiens)", "pIC50", 7.52),
    ("CN1CCN(C)c2ncc(S(=O)(=O)N[C@H]3CC[C@H](C(=O)N4CCNCC4c4ccccc4)CC3)cc21 (some centres unmarked)", "human acetyl-CoA carboxylase 2 (ACC2) (Homo sapiens)", "pIC50", 6.87),
    ("CC(NC(=O)[C@H]1CC[C@H](NS(=O)(=O)c2ccc3ccccc3c2)CC1)c1cccnc1 (some centres unmarked)", "human acetyl-CoA carboxylase 2 (ACC2) (Homo sapiens)", "pIC50", 6.62),
]

Below are some compounds; for each one, tell me its pIC50.
1. CC(C)N1CCN(C(C)C)c2ncc(S(=O)(=O)N[C@H]3CC[C@H](C(=O)N[C@H](C)c4ccc(F)cc4)CC3)cc21
2. C[C@@H](NC(=O)[C@H]1CC[C@H](NS(=O)(=O)c2cnc3c(c2)N(C)CCCN3C)CC1)c1ccc(F)cc1
3. CC(C)n1c(-c2ccc(F)cc2)c(Cl)c2ccc(S(=O)(=O)N[C@H]3CC[C@H](C(=O)N4CCNC(C(F)(F)F)C4)CC3)cc21 (some centres unmarked)

6.49
6.84
6.33

Hi there! I need pIC50 for each item below, if you can.
1. Cn1c(-c2ccccc2)cc2ccc(S(=O)(=O)N[C@H]3CC[C@H](C(=O)N4CCC(O)C4)CC3)cc21 (some centres unmarked)
2. CC(C)c1nnc([C@H]2CC[C@H](NS(=O)(=O)c3ccc4[nH]c(Nc5ccccc5)nc4c3)CC2)o1
3. Cn1c(C2CC2)c(Cl)c2ccc(S(=O)(=O)N[C@H]3CC[C@H](C(=O)N4CCOCC4)CC3)cc21

6.35
6.59
6.92

Field request: pIC50 | item: `CC(C)OC(=O)[C@H]1CC[C@H](NS(=O)(=O)c2ccc3[nH]c(Nc4ccccc4)nc3c2)CC1` 7.55

---

For each of the molecules below, state its pIC50.
- SYSTEM_UNDER_TEST: human acetyl-CoA carboxylase 2 (ACC2) (Homo sapiens, UniProt O00763)
- Construct: The cDNA encoding amino acids 144 to 2458 of human acetyl-CoA carboxylase 2; made in house; host or cells: Sf9 insect cells (baculovirus, pFastBac1)
- Sequence (O00763 144-2458): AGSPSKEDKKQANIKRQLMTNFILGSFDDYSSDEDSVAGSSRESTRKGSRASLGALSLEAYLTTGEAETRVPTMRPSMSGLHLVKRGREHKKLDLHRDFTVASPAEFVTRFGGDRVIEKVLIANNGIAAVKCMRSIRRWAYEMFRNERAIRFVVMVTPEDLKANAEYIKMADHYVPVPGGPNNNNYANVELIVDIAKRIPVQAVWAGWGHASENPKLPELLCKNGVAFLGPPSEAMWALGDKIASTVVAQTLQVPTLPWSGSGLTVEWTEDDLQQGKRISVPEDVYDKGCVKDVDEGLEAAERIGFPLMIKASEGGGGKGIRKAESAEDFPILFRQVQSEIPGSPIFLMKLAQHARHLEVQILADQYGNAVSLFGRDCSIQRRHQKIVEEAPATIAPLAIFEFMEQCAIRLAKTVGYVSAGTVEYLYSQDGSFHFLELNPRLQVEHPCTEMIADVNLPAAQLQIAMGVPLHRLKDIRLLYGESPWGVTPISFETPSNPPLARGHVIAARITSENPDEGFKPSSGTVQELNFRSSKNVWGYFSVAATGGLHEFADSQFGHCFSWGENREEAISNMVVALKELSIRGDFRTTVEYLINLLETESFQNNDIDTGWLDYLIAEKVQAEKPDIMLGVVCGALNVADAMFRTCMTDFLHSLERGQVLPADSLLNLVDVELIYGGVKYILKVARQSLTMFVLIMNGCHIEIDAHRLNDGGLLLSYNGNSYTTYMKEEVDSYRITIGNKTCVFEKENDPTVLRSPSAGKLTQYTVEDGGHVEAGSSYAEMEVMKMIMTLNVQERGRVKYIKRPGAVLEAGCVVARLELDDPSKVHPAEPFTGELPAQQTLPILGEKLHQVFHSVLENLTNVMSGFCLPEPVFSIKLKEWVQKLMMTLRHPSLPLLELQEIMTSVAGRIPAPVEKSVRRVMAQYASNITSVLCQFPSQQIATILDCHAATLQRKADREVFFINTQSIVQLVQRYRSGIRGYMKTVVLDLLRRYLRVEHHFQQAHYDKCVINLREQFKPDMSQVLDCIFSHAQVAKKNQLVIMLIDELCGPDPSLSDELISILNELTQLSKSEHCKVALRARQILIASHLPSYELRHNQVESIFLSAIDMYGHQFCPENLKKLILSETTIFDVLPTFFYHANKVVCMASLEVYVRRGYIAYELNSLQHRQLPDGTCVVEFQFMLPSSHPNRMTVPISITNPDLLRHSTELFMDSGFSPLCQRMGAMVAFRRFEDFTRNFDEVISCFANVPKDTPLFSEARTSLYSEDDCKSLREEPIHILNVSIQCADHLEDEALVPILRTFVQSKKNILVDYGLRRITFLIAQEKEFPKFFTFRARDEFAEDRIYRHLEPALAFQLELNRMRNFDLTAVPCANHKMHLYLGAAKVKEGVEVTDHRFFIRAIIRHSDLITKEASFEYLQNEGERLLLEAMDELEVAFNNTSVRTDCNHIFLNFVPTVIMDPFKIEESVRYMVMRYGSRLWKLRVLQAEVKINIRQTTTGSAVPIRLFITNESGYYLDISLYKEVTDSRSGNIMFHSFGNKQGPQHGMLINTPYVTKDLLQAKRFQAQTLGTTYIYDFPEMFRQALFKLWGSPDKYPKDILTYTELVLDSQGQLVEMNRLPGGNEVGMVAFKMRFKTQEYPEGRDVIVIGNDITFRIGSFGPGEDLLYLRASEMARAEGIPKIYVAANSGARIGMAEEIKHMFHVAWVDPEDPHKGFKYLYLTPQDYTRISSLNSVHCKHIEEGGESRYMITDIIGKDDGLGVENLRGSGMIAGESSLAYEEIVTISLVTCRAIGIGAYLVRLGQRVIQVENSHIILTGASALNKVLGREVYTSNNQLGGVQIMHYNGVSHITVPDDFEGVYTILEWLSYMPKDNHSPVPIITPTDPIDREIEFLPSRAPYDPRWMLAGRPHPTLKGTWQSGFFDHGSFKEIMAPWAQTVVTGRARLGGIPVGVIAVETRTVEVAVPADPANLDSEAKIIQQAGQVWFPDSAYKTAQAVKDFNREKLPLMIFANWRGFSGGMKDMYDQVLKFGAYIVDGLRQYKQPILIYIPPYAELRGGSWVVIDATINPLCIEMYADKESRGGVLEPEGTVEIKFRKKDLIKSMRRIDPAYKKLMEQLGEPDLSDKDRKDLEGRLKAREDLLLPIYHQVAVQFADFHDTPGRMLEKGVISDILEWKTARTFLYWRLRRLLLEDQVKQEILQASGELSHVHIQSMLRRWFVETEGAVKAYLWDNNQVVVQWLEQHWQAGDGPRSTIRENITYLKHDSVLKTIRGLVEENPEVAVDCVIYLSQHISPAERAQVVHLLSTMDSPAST
- RUN_DESCRIPTION: Acetyl-CoA carboxylase enzyme assay (malonyl-CoA formation by LC/MS/MS)
- Format: biochemical
- RUN_CONDITIONS: recombinant human ACC2 (aa 144-2458); read-out: IC50 ACC2
Answers are plain numbers, as −log10 of the molar value.

# MOLECULE, MEASURED_METRIC, TEST_RESULT
records = [
    ("Cn1c(-c2ccccc2)cc2cc(S(=O)(=O)N[C@H]3CC[C@H](C(=O)N4CC(C(=O)O)CCC4c4ccccc4)CC3)ccc21 (some centres unmarked) [Example 93]", "pIC50", 6.26),
]

Fill in pIC50 for each of the 7 molecules listed.
1. Cc1c(Cl)[nH]c2ccc(S(=O)(=O)N[C@H]3CC[C@H](C(=O)N[C@H](C)c4ccc(F)cc4)CC3)cc12
2. COc1ccc(CNCc2ccc(-c3nc4cc(S(=O)(=O)Nc5ccc(C(=O)OC(C)C)cc5)ccc4[nH]3)cc2)cc1OC
3. C[C@@H](NC(=O)[C@H]1CC[C@H](NS(=O)(=O)c2ccc3[nH]c(-c4cccnc4)cc3c2)CC1)c1ccccc1
4. CC(C)(C)OC(=O)N1CCN(C(=O)[C@H]2CC[C@H](NS(=O)(=O)c3ccc4c(c3)NCCC4)CC2)C(c2ccccc2)C1 (some centres unmarked)
5. O=C(OCc1ccccc1)N1CCN(C(=O)[C@H]2CC[C@H](NS(=O)(=O)c3cnc4c(c3)NCCN4)CC2)C(c2ccccc2)C1 (some centres unmarked)
6. CCN(C)C(=O)[C@H]1CC[C@H](NS(=O)(=O)c2ccc3c(Cl)c(-c4ccc(CCC(=O)OC)cc4)n(C)c3c2)CC1
7. C[C@@H](NC(=O)[C@H]1CC[C@H](NS(=O)(=O)c2ccc3c(c2)ncn3C)CC1)c1ccc(F)cc1

[7.49, 6.45, 7.85, 7.35, 6.94, 7.52, 6.49]

I have 8 molecules here; please give me pIC50 for each one.
1. C[C@@H](NC(=O)[C@H]1CC[C@H](NS(=O)(=O)c2ccc3c(c2)OCCO3)CC1)c1ccc(F)cc1
2. COC(=O)[C@H]1CC[C@H](NS(=O)(=O)c2ccc3nc(-c4ccccc4)[nH]c3c2)CC1
3. CC(C)Cc1cc2ccc(S(=O)(=O)N[C@H]3CC[C@H](C(=O)N[C@H](C)c4ccc(F)cc4)CC3)cc2[nH]1
4. Cn1c(-c2ccccc2)cc2ccc(S(=O)(=O)N[C@H]3CC[C@H](C(=O)N4CCCC(C(C)(C)O)C4)CC3)cc21 (some centres unmarked)
5. CC(C)N1CCNc2ncc(S(=O)(=O)N[C@H]3CC[C@H](C(=O)N[C@H](C)c4ccc(F)cc4)CC3)cc21
6. Cc1c[nH]c2ncc(S(=O)(=O)N[C@H]3CC[C@H](C(=O)N[C@H](C)c4ccc(F)cc4)CC3)cc12
7. O=C(Nc1cccc2ccccc12)[C@H]1CC[C@H](NS(=O)(=O)c2ccc3[nH]c(-c4ccccc4)nc3c2)CC1
8. CC(C)OC(=O)c1ccc(NS(=O)(=O)c2ccc3nc(-c4ccc(C(C)(C)C)cc4)[nH]c3c2)cc1

[6.35, 5.37, 6.24, 8.00, 6.24, 6.83, 5.97, 5.64]

Provide pIC50 values for the following items, in order.
1. CC(C)OC(=O)c1ccc(NS(=O)(=O)c2ccc3[nH]c(Nc4ccc(F)c(Cl)c4)nc3c2)cc1
2. CC(C)(NC(=O)[C@H]1CC[C@H](NS(=O)(=O)c2ccc3[nH]c(-c4ccccc4)nc3c2)CC1)c1ccccc1

[6.24, 6.60]

I would be grateful if you could provide pIC50 for each of the following entries.
1. CCC(C)NC(=O)[C@H]1CC[C@H](NS(=O)(=O)c2ccc3[nH]c(-c4cccnc4)cc3c2)CC1 (some centres unmarked) [Example 287]
2. CC(C)(C)OC(=O)N1CCN(C(=O)[C@H]2CC[C@H](NS(=O)(=O)c3ccc4cc(-c5ccccc5C(F)(F)F)[nH]c4c3)CC2)[C@@H](c2ccccc2)C1
3. Cn1c(-c2ccc(CO)cc2)cc2ccc(S(=O)(=O)N[C@H]3CC[C@H](C(=O)N4CCOCC4)CC3)cc21

6.71
7.26
7.46

Values were extracted from patent US8697739B2.
